Target: T1, P6-AA-12HGe-A
T1 chain: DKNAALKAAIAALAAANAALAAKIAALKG
Assay: two-hybrid library CCmax;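 further: natural log of median RNA to DNA barcode read ratio; higher means stronger binding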
Conditions: mean of both orientations
Mark true only when interaction score stays strictly below -0.04. Values equal to the cut-off are false.

Problem: Lab log: compare recorded interaction score with -0.04; is it strictly lower for DENAALEASIAALSASNAALSAEIAALEG [P5-AA-12HGe-S] ?
Result: true

Problem: What would you report for DENAALEAYIAALYAYNAALYAEIAALEG [P5-AA-12HGe-Y] ?
Result: true

Problem: # repeat for DENAALEARIAALRARNAALRAEIAALEG [P5-AA-12HGe-R]
Result: false

Problem: Next entry: DENAALEAMIAALMAMNAALMAEIAALEG [P5-AA-12HGe-M]
Result: false

Problem: What would you report for DENAALEATIAALTATNAALTAEIAALEG [P5-AA-12HGe-T] ?
Result: true

Problem: // repeat for DENAALEAWIAALWAWNAALWAEIAALEG [P5-AA-12HGe-W] and report
Result: true

Problem: One more binder: DENAALEAAIAALAAANAALAAEIAALEG [P5-AA-12HGe-A]
Result: false

Problem: And what about the binder DENAALEAKIAALKAKNAALKAEIAALEG [4H1401-AA] ?
Result: true

Recorded values, source paper PMC10397247.
